Assignment: determine reported EC50 for the given compounds.
Biological target: Stimulator of interferon genes protein (Homo sapiens, UniProt Q86WV6, G230A/R293Q/R71H)
Sequence (Q86WV6 whole entry R71H/G230A/R293Q): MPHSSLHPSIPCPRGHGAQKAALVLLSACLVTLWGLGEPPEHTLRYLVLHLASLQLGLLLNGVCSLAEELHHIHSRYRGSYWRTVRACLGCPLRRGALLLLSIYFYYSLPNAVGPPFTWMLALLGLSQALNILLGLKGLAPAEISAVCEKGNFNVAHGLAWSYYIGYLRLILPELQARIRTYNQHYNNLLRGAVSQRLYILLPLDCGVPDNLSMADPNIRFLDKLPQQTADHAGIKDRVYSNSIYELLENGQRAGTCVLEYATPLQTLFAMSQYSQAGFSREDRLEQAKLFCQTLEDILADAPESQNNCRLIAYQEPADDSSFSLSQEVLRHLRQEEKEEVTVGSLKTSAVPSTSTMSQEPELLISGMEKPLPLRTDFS
Assay: Activation of recombinant human STING haplotype R71H/G230A/R293Q mutant expressed in 293T cells measured after 30 mins in presence of digitonin A by bright Glo-luciferase reporter gene assay
One number for each entry, in nM.

Use these answered entries as a reference point.
compound	unit of measure	EC50
Nc1nc2c(ncn2[C@@H]2O[C@@H]3COP(=O)(O)O[C@H]4[C@@H](O)[C@H](n5nnc6c(N)ncnc65)O[C@@H]4COP(=O)(O)O[C@@H]2[C@@H]3O)c(=O)[nH]1	nM	310
NC(=O)c1ncn([C@@H]2O[C@@H]3COP(=O)(O)O[C@H]4[C@@H](O)[C@H](n5cnc6c(N)ncnc65)O[C@@H]4COP(=O)(O)O[C@@H]2[C@@H]3O)c1N	nM	400
Nc1nc2c([C@@H]3O[C@@H]4COP(=O)(O)O[C@H]5[C@@H](O)[C@H](n6cnc7c(N)ncnc76)O[C@@H]5COP(=O)(O)O[C@@H]3[C@@H]4O)scc2c(=O)[nH]1	nM	250
CSc1ncnc2c1ncn2[C@@H]1O[C@@H]2COP(=O)(O)O[C@@H]3[C@H](O)[C@@H](COP(=O)(O)O[C@H]2[C@H]1O)O[C@H]3n1cnc2c(=O)[nH]c(N)nc21	nM	60
Nc1nc2c(ncn2[C@@H]2O[C@@H]3COP(=O)(O)O[C@H]4[C@H](O)[C@H](n5cnc6c(N)nc(F)nc65)O[C@@H]4COP(=O)(O)O[C@@H]2[C@@H]3O)c(=O)[nH]1	nM	100
Nc1nc2c(ncn2[C@@H]2O[C@@H]3COP(=O)(O)O[C@H]4C[C@H](n5cnc6c(N)nc(Cl)nc65)O[C@@H]4COP(=O)(O)O[C@@H]2[C@@H]3O)c(=O)[nH]1	nM	80
Nc1nc2c(ncn2[C@@H]2O[C@@H]3COP(=O)(S)O[C@H]4[C@@H](O)[C@H](n5cnc6c(N)ncnc65)O[C@@H]4COP(=O)(O)O[C@@H]2[C@@H]3O)c(=O)[nH]1 (stereo partly specified)	nM	110
Nc1nc2c(ccn2[C@@H]2O[C@@H]3COP(=O)(O)O[C@H]4[C@@H](O)[C@H](n5cnc6c(N)ncnc65)O[C@@H]4COP(=O)(O)O[C@@H]2[C@@H]3O)c(=O)[nH]1	nM	100

Give EC50 for all compounds that follow.
1. CNc1ncnc2c1ncn2[C@@H]1O[C@@H]2COP(=O)(O)O[C@@H]3[C@H](O)[C@@H](COP(=O)(O)O[C@H]2[C@H]1O)O[C@H]3n1cnc2c(=O)[nH]c(N)nc21
2. Nc1ncnc2c1ncn2[C@@H]1O[C@@H]2COP(=O)(O)O[C@H]3[C@@H](O)[C@H](n4cnc5c(N)ncnc54)O[C@@H]3COP(=O)(O)O[C@H]2[C@H]1O
3. Cn1c(N)nc2c(ncn2[C@@H]2O[C@@H]3COP(=O)(O)O[C@H]4[C@@H](O)[C@H](n5cnc6c(N)ncnc65)O[C@@H]4COP(=O)(O)O[C@@H]2[C@@H]3O)c1=O

[60, 200, 40]

====

Assay: Cytotoxicity against human PBMC-derived CD3-positive T cells assessed as effect on cell viability at 12.5 uM incubated for 16 hrs by Zombie-NIR staining-based flow cytometry
measurement label: Activity

query smiles	recorded result
Nc1nc2c(ncn2[C@@H]2O[C@@H]3COP(=O)(O)O[C@H]4C[C@H](n5cnc6c(N)ncnc65)O[C@@H]4COP(=O)(O)O[C@@H]2[C@@H]3O)c(=O)[nH]1	Non-Toxic
Nc1nc2c(ncn2[C@@H]2O[C@@H]3COP(=O)(O)O[C@H]4[C@@H](O)[C@H](n5cnc6c(=O)[nH]cnc65)O[C@@H]4COP(=O)(O)O[C@@H]2[C@@H]3O)c(=O)[nH]1	Non-Toxic
Nc1nc2c(ncn2[C@@H]2O[C@@H]3COP(=O)(O)O[C@H]4[C@H](O)[C@H](n5cnc6c(N)nc(F)nc65)O[C@@H]4COP(=O)(O)O[C@@H]2[C@@H]3O)c(=O)[nH]1	Non-Toxic

====

Assignment: determine reported EC50 for the given molecules.
Target: Stimulator of interferon genes protein (Homo sapiens, UniProt Q86WV6, R293Q)
Sequence (Q86WV6 whole entry R293Q): as the sequence (Q86WV6 whole entry R71H/G230A/R293Q) above, with H71R, A230G counted along it
Assay: Activation of recombinant human STING haplotype R293Q mutant expressed in 293T cells measured after 30 mins in presence of digitonin A by bright Glo-luciferase reporter gene assay

Use these answered entries as a reference point.
query smiles	EC50
Nc1nc(N)c2ncn([C@@H]3O[C@@H]4COP(=O)(O)O[C@@H]5[C@H](O)[C@@H](COP(=O)(O)O[C@H]4[C@H]3F)O[C@H]5n3cnc4c(=O)[nH]c(N)nc43)c2n1	130 nM
Nc1nc2c(ncn2[C@@H]2O[C@@H]3COP(=O)(O)O[C@H]4[C@@H](N)[C@H](n5cnc6c(N)ncnc65)O[C@@H]4COP(=O)(O)O[C@@H]2[C@@H]3O)c(=O)[nH]1	240 nM
CNc1ncnc2c1ncn2[C@@H]1O[C@@H]2COP(=O)(O)O[C@@H]3[C@H](O)[C@@H](COP(=O)(O)O[C@H]2[C@H]1O)O[C@H]3n1cnc2c(=O)[nH]c(N)nc21	1200 nM
Cn1c(N)nc2c(ncn2[C@@H]2O[C@@H]3COP(=O)(O)O[C@H]4[C@@H](O)[C@H](n5cnc6c(N)ncnc65)O[C@@H]4COP(=O)(O)O[C@@H]2[C@@H]3O)c1=O	780 nM

Any idea what its EC50 is? The molecule is Nc1nc2c(ncn2[C@@H]2O[C@@H]3COP(=O)(O)O[C@@H]4[C@H](O)[C@@H](COP(=O)(O)O[C@@H]2[C@@H]3O)O[C@H]4n2cnc3c(N)ncnc32)c(=O)[nH]1
170 nM

====

Organism: Homo sapiens
Assay type: cell-based
Assignment: determine reported max activation for the given compounds.

query smiles	max activation
Cn1c(N)nc2c(ncn2[C@@H]2O[C@@H]3COP(=O)(O)O[C@H]4[C@@H](O)[C@H](n5cnc6c(N)ncnc65)O[C@@H]4COP(=O)(O)O[C@@H]2[C@@H]3O)c1=O	< 30%
Nc1nc2c(ncn2[C@@H]2O[C@@H]3COP(=O)(O)O[C@H]4[C@@H](O)[C@H](n5cnc6c(O)nc(O)nc65)O[C@@H]4COP(=O)(O)O[C@@H]2[C@@H]3O)c(=O)[nH]1	< 30%

Any idea what its max activation is? The compound is Nc1nc2c(ncn2[C@@H]2O[C@@H]3COP(=O)(O)O[C@H]4[C@@H](O)[C@H](n5nnc6c(N)ncnc65)O[C@@H]4COP(=O)(O)O[C@@H]2[C@@H]3O)c(=O)[nH]1
< 30%

====

Heads up, these compounds all have ΔTm values measured for Stimulator of interferon genes protein (Homo sapiens).
# answer = value followed by unit

Use these answered entries as a reference point.
query smiles	ΔTm
Nc1nc2c([C@@H]3O[C@@H]4COP(=O)(O)O[C@H]5[C@@H](O)[C@H](n6cnc7c(N)ncnc76)O[C@@H]5COP(=O)(O)O[C@@H]3[C@@H]4O)scc2c(=O)[nH]1	2.8 °C
Nc1nc(N)c2ncn([C@@H]3O[C@@H]4COP(=O)(O)O[C@@H]5[C@H](O)[C@@H](COP(=O)(O)O[C@H]4[C@H]3F)O[C@H]5n3cnc4c(=O)[nH]c(N)nc43)c2n1	14.4 °C

Would you kindly look at the next entry?
Any idea what its ΔTm is? The compound is NC(=O)c1ncn([C@@H]2O[C@@H]3COP(=O)(O)O[C@H]4[C@@H](O)[C@H](n5cnc6c(N)ncnc65)O[C@@H]4COP(=O)(O)O[C@@H]2[C@@H]3O)c1N
0.6 °C

====

Target: Stimulator of interferon genes protein (Homo sapiens, UniProt Q86WV6, R293Q)
Assay: Activation of recombinant human STING haplotype R293Q mutant expressed in 293T cells measured after 30 mins in presence of digitonin A by bright Glo-luciferase reporter gene assay
Type: cell-based
measurement label: EC50 (µM)
Numbers only, in µM.

Give EC50 for all compounds that follow.
1. Nc1ncnc2c1ncn2[C@@H]1O[C@@H]2COP(=O)(O)O[C@H]3[C@@H](O)[C@H](n4cnc5c(N)ncnc54)O[C@@H]3COP(=O)(O)O[C@H]2[C@H]1O
2. Nc1nc2c(ncn2[C@@H]2O[C@@H]3COP(=O)(O)O[C@H]4[C@@H](F)[C@H](n5cnc6c(N)nc(F)nc65)O[C@@H]4COP(=O)(O)O[C@@H]2[C@@H]3O)c(=O)[nH]1
3. Nc1nc2c(ncn2[C@@H]2O[C@@H]3COP(=O)(O)O[C@H]4[C@@H](O)[C@H](n5cnc6c(=O)[nH]cnc65)O[C@@H]4COP(=O)(O)O[C@@H]2[C@@H]3O)c(=O)[nH]1
4. Nc1nc2c([C@@H]3O[C@@H]4COP(=O)(O)O[C@H]5[C@@H](O)[C@H](n6cnc7c(N)ncnc76)O[C@@H]5COP(=O)(O)O[C@@H]3[C@@H]4O)scc2c(=O)[nH]1

1. 7.1
2. 0.08
3. 2.2
4. 3

These measurements were taken from ChEMBL document CHEMBL4334523.
